Exercise: for every item that follows, state its recorded protein stability index.
B1: FLOT1 (parent)
chain: QMAKKAEAFQLYQEAAQLDMLLEK

- Variants of: B1
- protocol.details: protein stability index of a GFP-peptide fusion (GPS, HEK-293T) (PSI 1-6); higher = more stable;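 note: lentivirally expressed fusions sorted by FACS into six bins by GFP to DsRed ratio, PSI derived from sequencing read proportions per bin multiplied by bin number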
- condition.label: c terminus: a fixed tail appended

Illustrative cases are given below, each with its answer.
1. Q17V: 1.14
2. Q17M: 1.02
3. Q13T: 2.85
4. M20Q: 3.1
5. E14S: 2.03
6. L22S: 2.63
7. L18M: 2.22
8. K24D: 3.76

Could you tell me protein stability index for each of these variants? They are listed below.
1. M20H
2. E23A
3. Q10H

-- reply
1: 2.94; 2: 2.29; 3: 2.03

Could you tell me protein stability index for each of these variants? They are listed below.
1. L18H
2. L11E
3. Q10G

-- reply
1: 1.83; 2: 3.48; 3: 1.72

Could you tell me protein stability index for each of these variants? They are listed below.
1. E14C
2. L21S
3. K5R

-- reply
1: 2.61; 2: 3.46; 3: 2.3
